src = patent EP2371816A1

Give measured Prot. Hmg for each item. Keep answers brief.
system: cerebral oxidative stress induced in mice by doxorubicin; test: In vivo assay of cerebral oxidative stress induced in mice by doxorubicin; details: % variation relative to the vehicle, healthy animals, 50 mg/kg IP x3 days (D = doxorubicin alone)
Answers are plain numbers, in %.

Sample records with Prot. Hmg:
COMPOUND	OBSERVED_VALUE
CC1(C)CC(=O)C=C(NN2CCCCC2)C1	8.4
O=C1C=C(NCCN2CCCCC2)CC(c2ccccc2)C1 (stereo not shown)	2.3
CC1(C)CC(=O)C=C(N(O)Cc2ccccn2)C1	0.7
CC1=NN(c2ccccc2)C(=O)C1 [edaravone, reference compound]	3.7
COc1cccc2c1C(=O)c1c(O)c3c(c(O)c1C2=O)C[C@@](O)(C(=O)CO)C[C@@H]3O[C@H]1C[C@H](N)[C@H](O)[C@H](C)O1 [D, doxorubicin, reference compound]	8.3
CC1(C)CC(=O)C=C(NCCN2CCCCC2)C1	5.3

Proceed to the following item.
# input Report Prot. Hmg for `CC1(C)CC(=O)C=C(N(O)Cc2cccnc2)C1` tested on cerebral oxidative stress induced in mice by doxorubicin.
# output 1.2
